- study.system: P2Y12 receptor (Homo sapiens)
- Sequence (Q9H244 whole entry): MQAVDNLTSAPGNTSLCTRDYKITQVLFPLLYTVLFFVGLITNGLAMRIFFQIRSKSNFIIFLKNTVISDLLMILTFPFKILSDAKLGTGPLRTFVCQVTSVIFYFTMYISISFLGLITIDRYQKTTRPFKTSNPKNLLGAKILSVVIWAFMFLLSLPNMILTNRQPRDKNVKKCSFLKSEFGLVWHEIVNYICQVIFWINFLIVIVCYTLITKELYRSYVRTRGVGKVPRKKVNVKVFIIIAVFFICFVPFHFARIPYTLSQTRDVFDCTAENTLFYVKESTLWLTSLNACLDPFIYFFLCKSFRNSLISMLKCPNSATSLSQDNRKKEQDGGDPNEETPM
- test: [33P]-2MeS-ADP binding to recombinant human P2Y12 membranes (Assay 3)
- Design: expressed in transfected cells; host or cells: HEK cells
- condition.context: at highest concentration tested, 10 μM
quantity.name: % Inhibition (%)
State the answer as a number, implicitly in %.

Answered examples (2):
molecule | measured.result
CCc1cc2c(N3CCN(C(=O)Cc4ccccc4)CC3)nc(SCC(=O)NC)nc2s1 | 88.77
CCc1cc2c(N3CCN(C(=O)c4ccc(N(C)C)cc4)CC3)nc(SCC(=O)OC)nc2s1 | 61.77

# % Inhibition of CCc1cc2c(N3CCN(C(=O)Cc4ccccc4)CC3)nc(SC(C)C(=O)O)nc2s1 (stereo not shown) = 94.08

# % Inhibition of CCc1cc2c(N3CCN(C(=O)Cc4ccccc4)CC3)nc(SCC(C)O)nc2s1 (stereo not shown) = 87.05
